- Target system: hT2R8 (Homo sapiens (Human), UniProt Q9NYW2)
- Sequence (Q9NYW2 whole entry): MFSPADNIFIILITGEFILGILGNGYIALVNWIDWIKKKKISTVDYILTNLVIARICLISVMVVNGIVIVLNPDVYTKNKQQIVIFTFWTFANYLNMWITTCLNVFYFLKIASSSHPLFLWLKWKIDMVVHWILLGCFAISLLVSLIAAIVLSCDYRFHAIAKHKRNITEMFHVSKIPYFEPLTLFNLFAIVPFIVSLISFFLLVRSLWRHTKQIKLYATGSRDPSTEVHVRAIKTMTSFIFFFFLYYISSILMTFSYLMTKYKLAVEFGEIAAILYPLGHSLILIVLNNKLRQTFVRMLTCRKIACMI
- Test protocol: hT2R8 antagonist high-throughput FLIPR assay, stable cell line with G16g44, agonist andrographolide
- Format: cell-based
- Details: table after Example 10-97; read-out: hT2R8 IC50
pIC50: −log10 of the molar value.
The entries below come with measured pIC50 values attached.
Observation type: pIC50

>>> result_number("COc1ccc(CN2CC(=O)N(c3cnn(Cc4c(C)noc4C)c3)C2=O)cc1O [Example 10-13]")
7.06
>>> result_number("Cc1ccccc1CN1CC(=O)N(c2cnn(Cc3c(C)noc3C)c2)C1=O [Example 10-20]")
6.88
>>> result_number("COc1ccc(CCN2CC(=O)N(c3cnn(Cc4c(C)noc4C)c3)C2=O)cc1OC [Example 10-87]")
6.86
>>> result_number("CNC(=O)c1cccc(CN2CC(=O)N(c3cnn(Cc4c(C)noc4C)c3)C2=O)c1 [Example 10-9]")
6.85
>>> result_number("Cc1noc(C)c1Cn1cc(N2C(=O)CN(Cc3ccccc3O)C2=O)cn1 [Example 10-11]")
7.16
>>> result_number("Cc1noc(C)c1Cn1cc(N2C(=O)CN(CCc3ccccc3)C2=O)cn1 [Example 10-78]")
6.86
>>> result_number("Cc1noc(C)c1Cn1cc(N2C(=O)CN(Cc3ccccc3[N+](=O)[O-])C2=O)cn1 [Example 10-23]")
7.09
>>> result_number("COc1cccc(CCN2CC(=O)N(c3cnn(Cc4c(C)noc4C)c3)C2=O)c1 [Example 10-85]")
6.80
>>> result_number("Cc1noc(C)c1Cn1cc(N2C(=O)N[C@@H](Cc3ccccc3)C2=O)cn1 [Example 10-3]")
6.95

----------
The entries below come with measured pIC50 values attached.
- Target system: hT2R8 (Homo sapiens (Human))
- Test protocol: hT2R8 antagonist high-throughput FLIPR assay, stable cell line with G16g44, agonist andrographolide
- Assay type: cell-based
- Details: read-out: IC50 on hT2R8 bitter receptor
pIC50: −log10 of the molar value.
Observation type: pIC50

>>> result_number("Cc1noc(C)c1Cn1cc(N2C(=O)[C@H](C(C)C)N(Cc3cccc(O)c3)C2=O)cn1 [Example 12-8]")
6.19
>>> result_number("Cc1noc(C)c1Cn1cc(N2C(=O)CN(CC3CCCCC3)C2=O)cn1 [Example 10-74]")
6.55
>>> result_number("Cc1noc(C)c1Cn1cc(N2C(=O)N(Cc3ccc(C#N)cc3)C(C)(C)C2=O)cn1 [Example 12-16]")
7.40
>>> result_number("CCCn1c(=O)n(-c2cnn(Cc3c(C)noc3C)c2)c(=O)n1Cc1ccccc1 [Example 10-93]")
7.22
>>> result_number("Cc1noc(C)c1Cn1cc(N2C(=O)CN(CC3CCCO3)C2=O)cn1 (stereo not shown) [Example 10-73]")
5.85
>>> result_number("Cc1noc(C)c1Cn1cc(N2C(=O)[C@H]3Cc4ccc(O)cc4CN3C2=O)cn1 [Example 13-2]")
7.52
>>> result_number("Cc1noc(C)c1Cn1cc(N2C(=O)NC(CC3CCCCC3)C2=O)cn1 (stereo not shown) [Example 10-57]")
6.02
>>> result_number("Cc1noc(C)c1Cn1cc(N2C(=O)N(Cc3cccc(O)c3)C3(CCCC3)C2=O)cn1 [Example 12-5]")
7.15
>>> result_number("Cc1noc(C)c1Cn1cc(NC(=O)C(C)c2ccccc2)cn1 (stereo not shown) [Example 4-5]")
6.49
>>> result_number("Cc1noc(C)c1Cn1cc(N2C(=O)[C@@H](C)N(Cc3ccccc3)C2=O)cn1 [Example 12-37]")
8.00
>>> result_number("COCCn1c(=O)n(-c2cnn(Cc3c(C)noc3C)c2)c(=O)n1Cc1ccccc1 [Example 10-92]")
7.22
>>> result_number("COc1ccccc1CCN1CC(=O)N(c2cnn(Cc3c(C)noc3C)c2)C1=O [Example 10-76]")
6.85
>>> result_number("Cc1noc(C)c1Cn1cc(N2C(=O)C(C)N(Cc3ccccc3)C2=O)cn1 (stereo not shown) [Example 10-43]")
7.70
>>> result_number("COCn1c(=O)n(-c2cnn(Cc3c(C)noc3C)c2)c(=O)n1Cc1ccccc1 [Example 10-89]")
7.70
>>> result_number("Cc1noc(C)c1Cn1cc(N2C(=O)CN(CCc3cccc(Cl)c3)C2=O)cn1 [Example 10-82]")
6.70
>>> result_number("Cc1noc(C)c1Cn1cc(N2C(=O)CN(CCc3ccccc3Cl)C2=O)cn1 [Example 10-81]")
6.60
>>> result_number("COc1cc(CN2C(=O)N(c3cnn(Cc4c(C)noc4C)c3)C(=O)C2(C)C)ccc1F [Example 12-20]")
6.74
>>> result_number("Cc1noc(C)c1Cn1cnc(NC(=O)c2ccc3c(c2)OCO3)c1 [Example 10-40]")
4.92
>>> result_number("Cc1noc(C)c1Cn1cc(N2C(=O)N(Cc3cccc(O)c3)C3(CCC3)C2=O)cn1 [Example 12-4]")
7.52
>>> result_number("COc1cc(C(=O)Nc2cnn(Cc3c(C)noc3C)c2)cc2c1OCCO2 [Example 4-93]")
6.15
>>> result_number("Cc1noc(C)c1CN1C(=O)N(c2cnn(Cc3c(C)noc3C)c2)C(=O)C1(C)C [Example 12-21]")
7.10
>>> result_number("Cc1noc(C)c1Cn1cc(N2CNCN(Cc3ccccc3)C2=O)cn1 [Example 9-6]")
5.23
>>> result_number("COc1ccccc1CN1C(=O)N(c2cnn(Cc3c(C)noc3C)c2)C(=O)C1(C)C [Example 12-31]")
7.10
>>> result_number("Cc1noc(C)c1Cn1cc(-n2c(=O)n(C)n(C)c2=O)cn1 [Example 10-69]")
6.22
>>> result_number("Cc1noc(C)c1Cn1cc(N2C(=O)CN(CCCc3ccccc3)C2=O)cn1 [Example 10-94]")
6.59

----------
The entries below come with measured inhibition at 25 µM values attached.
- Target system: hT2R61 (Homo sapiens (Human))
- Sequence (P59537 whole entry): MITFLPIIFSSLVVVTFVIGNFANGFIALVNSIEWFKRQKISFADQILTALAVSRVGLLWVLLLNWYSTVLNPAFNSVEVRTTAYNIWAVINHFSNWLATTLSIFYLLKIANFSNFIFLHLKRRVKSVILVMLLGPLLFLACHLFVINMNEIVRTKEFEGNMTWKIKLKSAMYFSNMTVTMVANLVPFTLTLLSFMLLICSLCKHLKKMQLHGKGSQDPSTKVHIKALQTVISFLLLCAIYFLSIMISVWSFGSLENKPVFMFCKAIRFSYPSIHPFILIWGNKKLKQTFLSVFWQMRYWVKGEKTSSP
- Test protocol: hT2R panel inhibition, transient HEK293 G16g44, agonist Aristolochic Acid 25 nM
- Type: cell-based
- Details: HEK293, compound at 25 μM; receptor activated to EC80 with the corresponding agonist; read-out: screening result against bitter receptor 61
Observation type: inhibition at 25 µM

>>> result("COc1ccc(CN(Cc2cccc(Cl)c2)S(=O)(=O)c2ccc(C(=O)O)cc2)cc1 [Example 5-14]")
"> 80%"
>>> result("O=C(O)c1ccc(CN(Cc2ccc(F)cc2)S(=O)(=O)c2ccccc2)cc1 [Example 5-105]")
"> 80%"
>>> result("O=C(O)C1CCC(CN(Cc2ccc(F)cc2)S(=O)(=O)c2ccccc2)CC1 (stereo not drawn) [Example 5-22]")
"> 80%"
>>> result("COc1ccc(CN(Cc2ccccc2)C(=O)c2ccc(C(=O)O)cc2)cc1 [Example 5-49]")
"60 to 80%"
>>> result("COc1ccc(CN(C2CCCc3ccccc32)S(=O)(=O)c2ccc(C(=O)O)cc2)cc1 (stereo not drawn) [Example 5-96]")
"> 80%"
>>> result("Cc1cccc(CN(Cc2ccccc2)S(=O)(=O)c2ccc(C(=O)O)cc2)c1 [Example 5-73]")
"60 to 80%"

----------
The entries below come with measured inhibition at 25 µM values attached.
- Target system: hT2R64 (Homo sapiens (Human))
- Sequence (P59538 whole entry): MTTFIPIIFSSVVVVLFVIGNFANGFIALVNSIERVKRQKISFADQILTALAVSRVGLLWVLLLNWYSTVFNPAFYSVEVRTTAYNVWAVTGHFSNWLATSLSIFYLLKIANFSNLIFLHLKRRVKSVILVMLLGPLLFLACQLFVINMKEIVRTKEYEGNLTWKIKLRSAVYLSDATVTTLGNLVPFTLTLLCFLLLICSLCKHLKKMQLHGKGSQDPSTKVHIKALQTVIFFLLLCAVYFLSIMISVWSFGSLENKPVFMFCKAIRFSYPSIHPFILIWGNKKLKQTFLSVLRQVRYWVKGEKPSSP
- Test protocol: hT2R panel inhibition, transient HEK293 G16g44, agonist Aristolochic Acid 1 μM
- Type: cell-based
- Details: HEK293, compound at 25 μM; receptor activated to EC80 with the corresponding agonist; read-out: screening result against bitter receptor 64
Observation type: inhibition at 25 µM

>>> result("COc1ccc(CN(Cc2ccccc2)S(=O)(=O)CCC(=O)O)cc1 [Example 5-57]")
"40 to 60%"
>>> result("COc1ccc(CN(Cc2ccc(C(=O)O)cc2)S(=O)(=O)c2ccc(C(=O)O)cc2)cc1 [Example 5-38]")
"20 to 40%"
>>> result("COc1ccc(CN(Cc2ccc(F)cc2)S(=O)(=O)c2ccc(C(=O)O)cc2)cc1 [Example 5-69]")
"40 to 60%"
>>> result("O=C(O)C1CCC(CN(Cc2ccc(F)cc2)S(=O)(=O)c2ccccc2)CC1 (stereo not shown) [Example 5-22]")
"40 to 60%"
>>> result("Cc1cccc(CN(Cc2ccccc2)S(=O)(=O)c2ccc(C(=O)O)cc2)c1 [Example 5-73]")
"20 to 40%"
>>> result("O=C(O)c1ccc(S(=O)(=O)N(Cc2ccccc2)Cc2ccc(O)cc2)cc1 [Example 5-99]")
"60 to 80%"
>>> result("COc1ccc(CN(Cc2ccccc2)C(=O)c2ccc(C(=O)O)cc2)cc1 [Example 5-49]")
"40 to 60%"
